For each of the compounds below, state its Emax.
Target: GR (Homo sapiens, UniProt P04150)
Construct: endogenous in cells; host or cells: A549 (human lung carcinoma, ECACC No. 86012804), stably transfected with reporter plasmids only
Sequence (P04150 whole entry): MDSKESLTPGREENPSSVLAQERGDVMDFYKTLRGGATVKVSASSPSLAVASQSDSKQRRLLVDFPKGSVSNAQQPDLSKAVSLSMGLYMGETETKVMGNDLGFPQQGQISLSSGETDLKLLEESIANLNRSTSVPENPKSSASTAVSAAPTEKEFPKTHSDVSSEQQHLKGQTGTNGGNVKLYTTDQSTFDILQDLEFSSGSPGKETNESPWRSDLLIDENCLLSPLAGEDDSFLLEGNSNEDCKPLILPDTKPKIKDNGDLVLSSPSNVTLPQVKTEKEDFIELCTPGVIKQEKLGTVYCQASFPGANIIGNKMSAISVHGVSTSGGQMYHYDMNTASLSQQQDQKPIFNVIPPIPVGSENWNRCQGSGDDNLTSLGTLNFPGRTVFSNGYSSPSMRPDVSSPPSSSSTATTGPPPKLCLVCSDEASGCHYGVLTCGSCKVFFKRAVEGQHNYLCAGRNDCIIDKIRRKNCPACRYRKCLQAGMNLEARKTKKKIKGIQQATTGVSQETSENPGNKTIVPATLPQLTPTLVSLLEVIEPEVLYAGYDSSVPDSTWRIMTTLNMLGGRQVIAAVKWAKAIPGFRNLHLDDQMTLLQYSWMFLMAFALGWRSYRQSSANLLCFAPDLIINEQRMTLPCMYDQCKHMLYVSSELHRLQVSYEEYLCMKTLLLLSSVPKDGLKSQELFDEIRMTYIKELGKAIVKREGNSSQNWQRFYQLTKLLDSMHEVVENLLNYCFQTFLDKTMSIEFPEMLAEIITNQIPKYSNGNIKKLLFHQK
Experiment: GR Agonist Assay - MMTV Assay (A549 MMTV cells, renilla luciferase reporter)
Format: cell-based
Details: 6 h, agonists, read-out: average maximum asymptote in the MMTV agonist assay

Previously resolved entries follow.
[[record]]
compound = "CCN(CC(O)(CNC(=O)c1cnn(-c2ccc(F)cc2)c1N)C(F)(F)F)C(=O)c1ccccc1F (single isomer, unassigned) [Example 4 Enantiomer 2]"
observed_result = "≥ 40%"

[[record]]
compound = "CCN(CC(O)(CNC(=O)c1cnn(-c2ccc(F)cc2)c1N)C(F)(F)F)C(=O)c1ccccc1OC(F)F (racemic) [Example 12 (racemic)]"
observed_result = "≥ 40%"

[[record]]
compound = "CCN(CC(O)(CNC(=O)c1cnn(-c2ccc(F)cc2)c1N)C(F)(F)F)C(=O)c1cccc(F)c1Cl (racemic) [Example 18 (racemic)]"
observed_result = "≥ 40%"

[[record]]
compound = "CCN(CC(O)(CNC(=O)c1cnn(-c2ccc(F)cc2)c1N)C(F)(F)F)C(=O)c1ccccc1C(F)(F)F (racemic) [Example 9 (racemic)]"
observed_result = "≥ 40%"

[[record]]
compound = "CCN(CC(O)(CNC(=O)c1cnn(-c2ccc(F)cc2)c1N)C(F)(F)F)C(=O)c1ccccc1C(C)=O (racemic) [Example 13 (racemic)]"
observed_result = "≥ 40%"


Please go through the list and note Emax for each compound.
1. Nc1c(C(=O)NCC(O)(CN(CCF)C(=O)c2ncccc2F)C(F)(F)F)cnn1-c1ccc(F)cc1 (racemic) [Example 40 (racemic)]
2. CCN(CC(O)(CNC(=O)c1cnn(-c2ccc(F)cc2)c1N)C(F)(F)F)C(=O)c1cccc2cccnc12 (single isomer, unassigned) [Example 8 Enantiomer 1]
3. CCN(CC(O)(CNC(=O)c1cnn(-c2ccc(F)cc2)c1N)C(F)(F)F)C(=O)c1ncccc1F (racemic) [Example 38 (racemic)]
4. Nc1c(C(=O)NCC(O)(CN(CCF)C(=O)c2ccccc2)C(F)(F)F)cnn1-c1ccc(F)cc1 (single isomer, unassigned) [Example 1 Enantiomer 2]
5. CCN(CC(O)(CNC(=O)c1cnn(-c2ccccc2)c1N)C(F)(F)F)C(=O)c1ccccc1F (single isomer, unassigned) [Example 45 Enantiomer 1]
6. Nc1c(C(=O)NCC(O)(CN(CCF)C(=O)c2ccccc2F)C(F)(F)F)cnn1-c1ccc(F)cc1 (single isomer, unassigned) [Example 2 Enantiomer 1]

1. ≥ 40%
2. ≥ 40%
3. ≥ 40%
4. ≥ 40%
5. ≥ 40%
6. ≥ 40%

For this compound ( CCN(CC(O)(CNC(=O)c1cnn(-c2ccc(F)cc2)c1N)C(F)(F)F)C(=O)c1cccc2cccnc12 (racemic) [Example 8 (racemic)] ), measured Emax is ≥ 40%
